- Tested on: HCoV OC43
- Procedure Summary: In vitro anti-coronavirus activity using a cytopathic model (CPE, CellTiter Glo)
- Run Parameters: Betacoronavirus 1, OC43, MRC5, 120 h
Quantity Measured: EC50 (nM)
# value in nM; strip the unit string

Use these answered entries as a reference point.
{"columns": ["Input Smiles", "Tested On", "Units", "EC50"],
 "data": [
  ["CC(C)(C)NC(=O)C(=O)[C@H](C[C@@H]1CCNC1=O)NC(=O)[C@@H]1[C@H]2CCC[C@H]2CN1C(=O)[C@@H](NC(=O)C(F)(F)F)C1CCCC1", "HCoV OC43", "nM", 368],
  ["CC(C)(C)NC(=O)C(=O)[C@H](C[C@@H]1CCNC1=O)NC(=O)[C@@H]1[C@H]2CCC[C@H]2CN1C(=O)[C@@H](NC(=O)C(F)(F)F)C1CCCCC1", "HCoV OC43", "nM", 146],
  ["O=C(NC1CCCC1)C(=O)[C@H](C[C@@H]1CCNC1=O)NC(=O)[C@@H]1[C@H]2CCC[C@H]2CN1C(=O)[C@@H](NC(=O)C(F)(F)F)C1CCCCC1", "HCoV OC43", "nM", 259],
  ["CC(C)(C)NC(=O)C(=O)[C@H](C[C@@H]1CCNC1=O)NC(=O)[C@@H]1[C@H]2CCC[C@H]2CN1C(=O)[C@@H](NC(=O)C(F)(F)F)C1CCC1", "HCoV OC43", "nM", 823]
]}

Please find the next molecule below.
q: Read off the recorded EC50 for `O=C(NCc1ccccc1)C(=O)[C@H](C[C@@H]1CCNC1=O)NC(=O)[C@@H]1[C@H]2CCC[C@H]2CN1C(=O)[C@@H](NC(=O)C(F)(F)F)C1CCCCC1`
a: 368

====

- Procedure Summary: in vivo
- Run Parameters: male, C57BL/6J, mouse, iv, 3 mg/kg
Quantity Measured: concentration at 2 h (nM)
# value in nM; strip the unit string

q: Read off the recorded concentration at 2 h for `O=C(NC1CCCC1)C(=O)[C@H](C[C@@H]1CCNC1=O)NC(=O)[C@@H]1[C@H]2CCC[C@H]2CN1C(=O)[C@@H](NC(=O)C(F)(F)F)C1CCCCC1`
a: 867

====

- Procedure Summary: in vivo
- Run Parameters: male, C57BL/6J, mouse, iv, 3 mg/kg
Quantity Measured: concentration at 8 h (nM)
# value in nM; strip the unit string

q: Read off the recorded concentration at 8 h for O=C(NC1CCCC1)C(=O)[C@H](C[C@@H]1CCNC1=O)NC(=O)[C@@H]1[C@H]2CCC[C@H]2CN1C(=O)[C@@H](NC(=O)C(F)(F)F)C1CCCCC1 [Compound 1]
a: 89.7

====

- Procedure Summary: in vivo
- Run Parameters: male, C57BL/6J, mouse, iv, 3 mg/kg
Quantity Measured: concentration at 4 h (nM)
# value in nM; strip the unit string

q: Read off the recorded concentration at 4 h for `O=C(NC1CCCC1)C(=O)[C@H](C[C@@H]1CCNC1=O)NC(=O)[C@@H]1[C@H]2CCC[C@H]2CN1C(=O)[C@@H](NC(=O)C(F)(F)F)C1CCCCC1`
a: 293

====

Below are compounds with their IC50 as measured on SARS-COV-2 Mpro (Severe acute respiratory syndrome coronavirus 2).
# value in nM; strip the unit string

{"columns": ["Input Smiles", "Observed"],
 "data": [
  ["CC(C)(C)NC(=O)C(=O)[C@H](C[C@@H]1CCNC1=O)NC(=O)[C@@H]1[C@H]2CCC[C@H]2CN1C(=O)[C@@H](NC(=O)C(F)(F)F)C1CCCCC1", 25],
  ["CC(C)(C)NC(=O)C(=O)[C@H](C[C@@H]1CCNC1=O)NC(=O)[C@@H]1[C@H]2CCC[C@H]2CN1C(=O)[C@@H](NC(=O)C(F)(F)F)C1CCCC1", 50],
  ["CC(C)(C)NC(=O)C(=O)[C@H](C[C@@H]1CCNC1=O)NC(=O)[C@@H]1[C@H]2CCC[C@H]2CN1C(=O)[C@@H](NC(=O)C(F)(F)F)C1CCC1", 104]
]}

q: Read off the recorded IC50 for `CC1([C@H](NC(=O)C(F)(F)F)C(=O)N2C[C@@H]3CCC[C@@H]3[C@H]2C(=O)N[C@@H](C[C@@H]2CCNC2=O)C(=O)C(=O)NC2CCCC2)CCCCC1`
a: 12

q: Read off the recorded IC50 for `O=C(NCc1ccccc1)C(=O)[C@H](C[C@@H]1CCNC1=O)NC(=O)[C@@H]1[C@H]2CCC[C@H]2CN1C(=O)[C@@H](NC(=O)C(F)(F)F)C1CCCCC1`
a: 11

====

- Procedure Summary: in vivo
- Run Parameters: male, C57BL/6J, mouse, po, 10 mg/kg
// reported half-life per item
Please provide the amount together with its unit, number first.

Use these answered entries as a reference point.
{"columns": ["Compound", "half-life"],
 "data": [
  ["CC(C)(C)[C@H](NC(=O)C(F)(F)F)C(=O)N1C[C@H]2[C@@H]([C@H]1C(=O)N[C@H](C#N)CC1CCNC1=O)C2(C)C (stereo partly drawn) [PF-07321332, reference compound]", "1.1 h"],
  ["O=C(NC1CCCC1)C(=O)[C@H](C[C@@H]1CCNC1=O)NC(=O)[C@@H]1[C@H]2CCC[C@H]2CN1C(=O)[C@@H](NC(=O)C(F)(F)F)C1CCCCC1 [Compound 1]", "2.63 h"]
]}

Please find the next compound below.
q: Read off the recorded half-life for CC(C)(C)NC(=O)C(=O)[C@H](C[C@@H]1CCNC1=O)NC(=O)[C@@H]1[C@H]2CCC[C@H]2CN1C(=O)[C@@H](NC(=O)C(F)(F)F)C1CCCCC1 [Compound 3]
a: 5.4 h

====

- Procedure Summary: in vivo
- Run Parameters: male, C57BL/6J, mouse, po, 10 mg/kg
Quantity Measured: AUC(0-t) (µM·h)
# value in µM·h; strip the unit string

Use these answered entries as a reference point.
{"columns": ["Molecule", "Quantity Measured", "Observed"],
 "data": [
  ["CC(C)(C)NC(=O)C(=O)[C@H](C[C@@H]1CCNC1=O)NC(=O)[C@@H]1[C@H]2CCC[C@H]2CN1C(=O)[C@@H](NC(=O)C(F)(F)F)C1CCCCC1", "AUC(0-t)", 33],
  ["CC(C)(C)[C@H](NC(=O)C(F)(F)F)C(=O)N1C[C@H]2[C@@H]([C@H]1C(=O)N[C@H](C#N)CC1CCNC1=O)C2(C)C (stereo partly drawn) [PF-07321332, reference compound]", "AUC(0-t)", 3.58]
]}

q: Read off the recorded AUC(0-t) for `O=C(NC1CCCC1)C(=O)[C@H](C[C@@H]1CCNC1=O)NC(=O)[C@@H]1[C@H]2CCC[C@H]2CN1C(=O)[C@@H](NC(=O)C(F)(F)F)C1CCCCC1`
a: 5.7

====

- Procedure Summary: in vivo
- Run Parameters: male, C57BL/6J, mouse, po, 10 mg/kg
Quantity Measured: concentration at 2 h (nM)
# value in nM; strip the unit string

q: Read off the recorded concentration at 2 h for `O=C(NC1CCCC1)C(=O)[C@H](C[C@@H]1CCNC1=O)NC(=O)[C@@H]1[C@H]2CCC[C@H]2CN1C(=O)[C@@H](NC(=O)C(F)(F)F)C1CCCCC1`
a: 1290

====

- Procedure Summary: in vivo
- Run Parameters: male, C57BL/6J, mouse, po, 10 mg/kg
Quantity Measured: concentration at 0.25 h (nM)
# value in nM; strip the unit string

q: Read off the recorded concentration at 0.25 h for `O=C(NC1CCCC1)C(=O)[C@H](C[C@@H]1CCNC1=O)NC(=O)[C@@H]1[C@H]2CCC[C@H]2CN1C(=O)[C@@H](NC(=O)C(F)(F)F)C1CCCCC1`
a: 533

====

- Procedure Summary: in vivo
- Run Parameters: male, C57BL/6J, mouse, iv, 3 mg/kg
Quantity Measured: concentration at 1 h
Please provide the amount together with its unit, number first.

q: Read off the recorded concentration at 1 h for `O=C(NC1CCCC1)C(=O)[C@H](C[C@@H]1CCNC1=O)NC(=O)[C@@H]1[C@H]2CCC[C@H]2CN1C(=O)[C@@H](NC(=O)C(F)(F)F)C1CCCCC1`
a: 1960 nM

====

- Procedure Summary: in vivo
- Run Parameters: male, C57BL/6J, mouse, po, 10 mg/kg
Quantity Measured: concentration at 24 h (nM)
# value in nM; strip the unit string

q: Read off the recorded concentration at 24 h for O=C(NC1CCCC1)C(=O)[C@H](C[C@@H]1CCNC1=O)NC(=O)[C@@H]1[C@H]2CCC[C@H]2CN1C(=O)[C@@H](NC(=O)C(F)(F)F)C1CCCCC1 [Compound 1]
a: 2.69
